Biological target: T1, human RAP1RCT (RAP1 C-terminal RCT domain, residues 303-399) (human, UniProt Q9NYB0 303-399)
T1 sequence (looked up): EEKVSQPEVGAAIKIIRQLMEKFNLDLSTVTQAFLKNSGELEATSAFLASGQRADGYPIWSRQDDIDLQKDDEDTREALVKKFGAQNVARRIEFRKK
Experiment: ITC
REPORTED ENDPOINT: Kd (nM)
Number only, in nM; omit the unit.

Entry QLRNPPTTIGMMTLKAAFKTLSGAQDSEAAFAKLDQKDLVLP (domain or fragment) [human TRF2RBM (RAP1-binding motif, TRF2 residues 275-316)] : reported Kd = ?
16.5

Values from paper PMC3688267
